Each entry below carries its reported Ratio OD450 pH 7.4/pH 6.
- system: recombinant Motavizumab human IgE (rMota-hIgE) (human) (UniProt P01854)
- Sequence (P01854 other isoform, or with tags, fused parts or gaps limits assumed, form in doubt): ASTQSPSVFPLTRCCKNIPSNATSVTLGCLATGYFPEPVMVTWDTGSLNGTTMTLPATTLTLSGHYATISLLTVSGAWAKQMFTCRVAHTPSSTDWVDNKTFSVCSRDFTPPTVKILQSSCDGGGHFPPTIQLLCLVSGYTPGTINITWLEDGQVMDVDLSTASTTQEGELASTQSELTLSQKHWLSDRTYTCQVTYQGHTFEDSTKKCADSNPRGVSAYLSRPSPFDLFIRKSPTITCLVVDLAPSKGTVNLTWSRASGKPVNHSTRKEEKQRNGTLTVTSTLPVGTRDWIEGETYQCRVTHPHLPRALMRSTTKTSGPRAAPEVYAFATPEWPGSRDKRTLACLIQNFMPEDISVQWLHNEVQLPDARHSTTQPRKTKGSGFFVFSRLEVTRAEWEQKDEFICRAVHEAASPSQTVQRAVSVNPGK
- procedure.summary: hIgE binding ELISA
Answer field: number only, no words.

| binder | experimental.value |
| --- | --- |
| CL-2C mAb 4 (antibody, V domains shown) VH: QVQLVQSGAEVMKPGSSVKVSCKASGYTFSWYHLEWVRQAPGHGLEWMGEIDPGTFTTNYNEKFKARVTFTADTSTSTAYMELSSLRSEDTAVYYCARFSHFSGHNYDYFDYWGQGTLVTVSS VL: EIVMTQSPATLSVSPGERATLSCRASQHIGTNIHWYQQKPGQAPRLLIYYASESISGIPARFSGSGSGTEFTLTISSLQSEDFAVYYCQQSWSHPTTFGGGTKVEIK | 5.26 |
| CL-2C mAb 32 (antibody, V domains shown) VH: QVQLVQSGAEVMKPGSSVKVSCKASGYTFSWYHLEWVRQAPGHGLEWMGEIDPGTFTTNYNEKFKARVTFTADTSTSTAYMELSSLRSEDTAVYYCARFSHFSGSNHDYFDYWGQGTLVTVSS VL: EIVMTQSPATLSVSPGERATLSCRASQSIGTNIHWYQQKPGQAPRLLIYYASESISGIPARFSGSGSGTEFTLTISSLQSEDFAVYYCQQSWSHPTTFGGGTKVEIK | 4.13 |

Then there is this binder:
**Q:** For the binder shown here, CL-2C mAb 9 (antibody, V domains shown) VH: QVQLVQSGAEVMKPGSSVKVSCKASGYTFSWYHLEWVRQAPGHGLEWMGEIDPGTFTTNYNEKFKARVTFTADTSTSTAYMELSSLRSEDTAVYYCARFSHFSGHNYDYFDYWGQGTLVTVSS VL: EIVMTQSPATLSVSPGERATLSCRASQSIGTNIHWYQQKPGQAPRLLIYHASESISGIPARFSGSGSGTEFTLTISSLQSEDFAVYYCHQSDSWPTTFGGGTKVEIK , give the reported Ratio OD450 pH 7.4/pH 6.
**A:** 1.45

Numbers sourced from patent US20220177604A1.
